biological target: CaNbp2; experiment: SPOT peptide array binding signal intensity (averaged, normalized) (arbitrary units (background-subtracted, floor 0; scale differs between SH3 domains)); higher = stronger binding of the SH3 domain to the peptide
endpointLabel: SPOT peptide array binding signal intensity
# output: bare number, no unit

// solved cases for SPOT peptide array binding signal intensity follow
* KRKRFNLLLPKPYLT | 192
* ATKSASPTLPTRRSR | 77
* QTMRQAPKRPDADVA | 1450
* AHFQPQRTAPKPPIS | 3970
* FSRRQSMDIPSKNRN | 1460
* AIPPPVPNRPGGTTN | 1

// next entry
q: Bench note: what SPOT peptide array binding signal intensity did "IPSRPAPKPPSSASA" show?
a: 4920
